List of IC50 values.
target: NLRP3 (Homo sapiens, UniProt Q96P20); assay: Human whole blood IL1β release assay; assay type: cell-based; details: LPS 1 μg/ml, nigericin 10 μM, IL-1β AlphaLisa, 10 μM top dose (Example 2: top dose of 30 μM), read-out: HWB IC50
Sequence (Q96P20 whole entry): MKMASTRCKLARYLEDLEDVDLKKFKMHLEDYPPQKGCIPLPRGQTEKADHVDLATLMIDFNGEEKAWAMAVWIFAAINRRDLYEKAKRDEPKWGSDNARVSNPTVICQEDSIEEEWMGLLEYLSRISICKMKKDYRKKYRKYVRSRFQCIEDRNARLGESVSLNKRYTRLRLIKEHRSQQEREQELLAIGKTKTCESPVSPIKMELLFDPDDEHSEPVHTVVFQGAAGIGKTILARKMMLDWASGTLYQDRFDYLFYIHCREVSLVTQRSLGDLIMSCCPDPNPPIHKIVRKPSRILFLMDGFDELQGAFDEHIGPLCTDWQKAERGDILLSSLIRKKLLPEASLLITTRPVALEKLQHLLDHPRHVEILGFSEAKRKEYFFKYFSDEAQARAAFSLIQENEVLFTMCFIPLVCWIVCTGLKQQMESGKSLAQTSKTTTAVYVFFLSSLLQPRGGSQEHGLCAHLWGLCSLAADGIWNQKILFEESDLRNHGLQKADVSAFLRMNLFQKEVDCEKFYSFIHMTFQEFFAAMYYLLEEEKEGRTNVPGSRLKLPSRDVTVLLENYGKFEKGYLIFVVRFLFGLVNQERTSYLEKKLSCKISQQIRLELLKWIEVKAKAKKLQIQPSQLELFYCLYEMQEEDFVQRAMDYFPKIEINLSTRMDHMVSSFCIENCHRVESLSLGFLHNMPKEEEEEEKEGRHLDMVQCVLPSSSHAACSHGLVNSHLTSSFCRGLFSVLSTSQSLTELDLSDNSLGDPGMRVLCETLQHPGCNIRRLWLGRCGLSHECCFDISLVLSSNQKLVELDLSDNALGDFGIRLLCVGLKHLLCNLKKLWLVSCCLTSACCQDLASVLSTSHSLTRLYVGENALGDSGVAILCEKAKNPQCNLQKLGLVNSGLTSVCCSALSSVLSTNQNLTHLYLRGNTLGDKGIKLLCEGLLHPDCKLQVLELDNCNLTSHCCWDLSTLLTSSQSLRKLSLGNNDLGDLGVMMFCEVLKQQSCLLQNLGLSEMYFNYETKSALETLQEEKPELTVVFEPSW

# count of solved cases: 8
CN1CCC2(C1)CN(S(=O)(=O)c1nnc(Nc3c4c(cc5c3CCC5)CCC4)[nH]1)C2: ≤ 0.5 µM
Cc1cc2c(c(Nc3nnc(S(=O)(=O)c4ccccc4)[nH]3)c1-c1ccnc(OC3CCOCC3)c1)CCC2: ≤ 5 µM
CC(CNS(=O)(=O)c1nnc(Nc2c3c(cc4c2CCC4)CCC3)[nH]1)N(C)C (stereo not shown): ≤ 5 µM
O=S(=O)(c1nnc(Nc2c3c(cc4c2CCC4)CCC3)[nH]1)N1CC[C@H](C2(O)CC2)C1: ≤ 10 µM
[2H]C([2H])([2H])Oc1cc(-c2ccc3c(c2Nc2nnc(S(=O)(=O)N4CC5(CCN(C)C5)C4)[nH]2)CCO3)ccn1: ≤ 0.5 µM
CN1CCCCC1CNS(=O)(=O)c1nnc(Nc2c3c(cc4c2CCC4)CCC3)[nH]1 (stereo not shown): ≤ 10 µM
CCN(CC)CCCS(=O)(=O)c1nnc(Nc2c(-c3ccnc(OC)c3)cc(F)cc2C(C)C)[nH]1: ≤ 5 µM
Cc1cc2c(c(Nc3nnc(S(=O)(=O)c4ccccc4)[nH]3)c1-c1ccnc(OC3CCN(C)CC3)c1)CCC2: ≤ 5 µM

For CN(C)CC1CCN(S(=O)(=O)c2nnc(Nc3c4c(cc5c3CCC5)CCC4)[nH]2)CC1 on NLRP3 (Homo sapiens, UniProt Q96P20), measured IC50 was ≤ 1 µM
